Below, each entry is listed with its recorded normalized growth.
Assay: chemical genetic growth profiling, strain panel (AID 1159580);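 also: tested at 20 µM; growth read once vehicle control cultures reached saturation at 30 °C; 1 = growth at the plate median or of vehicle wells; lower values mean less growth of the strain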
Conditions: S. cerevisiae deletion strains, growth OD, locus YPR163C, strain tif3, stronger effect = lower value
About 2,000 (36%) of roughly 5,500 compounds were called active. Another 18% or so got no clear call; they are omitted. The list shows a part of the results.
// return just the number, without any unit appended

// known answers, use as guide
Molecule: CC1(C)C2(Cl)C(Cl)C(Cl)C(Cl)(C(Cl)Cl)C1(Cl)C2Cl (stereo unspecified)
normalized growth: 0.91
//
Molecule: C=C1C(C)C2C(Cc3ccccc3)NC(=O)C23OC(=O)/C=C/C(=O)CCCC(C)C/C=C/C3C1O (stereo unspecified)
normalized growth: 0.884
//
Molecule: O=C(O)c1cc2cc(Cc3cccnc3)ccc2o1
normalized growth: 0.993
//
Molecule: CC(C)C(C)/C=C/C(C)C1CCC2C3=CC=C4CC(O)CCC4(C)C3CCC21C (stereo unspecified)
normalized growth: 0.828
//
Molecule: COc1cc([C@@H]2c3cc4c(c(O)c3C[C@H]3COC(=O)[C@@H]32)OCO4)cc(OC)c1OC
normalized growth: 0.97
//
Molecule: C=C1C(C)C2C(Cc3ccccc3)NC(=O)C23OC(=O)/C=C/C(O)CCCC(C)C/C=C/C3C1O (stereo unspecified)
normalized growth: 1

Problem: Endpoint output: normalized growth of Oc1ccc2c(c1)OCC1c3cc4c(cc3OC21)OCO4 (stereo unspecified) . Value?
Solution: 0.906

Problem: Request: COC(=O)C(O)c1ccccc1 (stereo unspecified)
Solution: 0.983

Problem: Then COc1ccc([C@H]2Oc3cc(OC)cc(OC)c3C[C@H]2O)cc1 ?
Solution: 1.01

Problem: What do we get for COc1ccc2c(c1OC)C(=O)OC2[C@H]1c2c(cc3c(c2OC)OCO3)CCN1C (stereo partly specified) ?
Solution: 0.984

###

Assay: chemical genetic growth profiling, strain panel (AID 1159580);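 also: tested at 20 µM; growth read once vehicle control cultures reached saturation at 30 °C; 1 = growth at the plate median or of vehicle wells; lower values mean less growth of the strain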
Conditions: S. cerevisiae deletion strains, growth OD, locus YMR205C, strain PFK2, stronger effect = lower value
Counter-ions that a name gives are not always drawn. The whole screen tested about 5,500 compounds, of which about 2,000 (36%) were called active. Roughly 18% stayed inconclusive and do not appear here. The list shows a part of the results. Where a SMILES comes first, the peptide text is derived from it. The star is where a group is joined. Tfa = O=C(C(F)(F)F)*
Quantity: normalized growth
API doc: respond with a numeric literal and nothing else, no unit.

Compound: O=c1cc[nH]c(=S)[nH]1
Experimental Result: 1.05
--
Compound: Clc1cccc(Cl)c1NC1=NCCN1
Experimental Result: 0.947
--
Compound: CCCCN(CCCC)CCCOC(=O)c1ccc(N)cc1
Experimental Result: 0.991

Problem: I would be grateful if you could share the reported normalized growth for CC[N+](CC)(CC)CCOc1cccc(OCC[N+](CC)(CC)CC)c1OCC[N+](CC)(CC)CC .
Solution: 1.03

Problem: What do you get for C=C1CCC(C2CC(=O)OC2=O)C(=O)CCC2C1CC2(C)C (stereo not drawn) ?
Solution: 0.98

Problem: Also OCc1ccccc1O , if possible.
Solution: 1.03

Problem: Cool, now CC(C)C(NC(=O)C(Cc1ccc(O)cc1)NC(=O)C(NC(=O)C(F)(F)F)C(C)C)C(=O)O (stereo not drawn) (Tfa-Val-Tyr-Val-OH; configuration not given here)
Solution: 0.998

Problem: Repeat with CC(C)(C)CC(C)(C)c1ccc(O)c(Cc2ccc(Cl)cc2Cl)c1
Solution: 1.01
